- system: Caspase-1 (Homo sapiens)
- assayMethodText: qHTS Assay for Allosteric/Competitive Inhibitors of Caspase-1;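 note: plate controls were vehicle for no effect and no substrate for full effect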
- conditionContext: Caspase-1 enzyme, Ac-WEHD-AFC fluorogenic rate; series mostly up to 57.5 µM
The campaign covered roughly 75,000 compounds. About 20 (0.03%) were called active. About 1% were inconclusive and are not listed. Not all results are given here.
assayMetric: activity change, negative = inhibition

Examples with their reported activity change, negative = inhibition follow.
compound	system	activity change, negative = inhibition
COC(=O)NC(c1ccccc1)[C@]1(C(C)=O)CCCC1=O (stereo partly drawn)	Caspase-1 (Homo sapiens)	0.536% [at 11.5 µM] (inactive)
CO[C@H]1COC(=O)CCC[C@@H](C)[C@H](OC)COC(=O)[C@@H](C)NC(=O)C/C=C\[C@@H]1C	Caspase-1 (Homo sapiens)	-4.01% [at 11.5 µM] (inactive)
C#CCC(C(=O)OC)(C(=O)OC)C(C[N+](=O)[O-])c1ccccc1 (stereo not drawn)	Caspase-1 (Homo sapiens)	-0.949% [at 11.5 µM] (inactive)
O=C(c1ccc(-n2cnnn2)cc1)N1CCN(C(c2ccccc2)c2ccccc2)CC1	Caspase-1 (Homo sapiens)	inactive
O=C(COc1ccccc1)NCCc1nc2ccccc2[nH]1	Caspase-1 (Homo sapiens)	inactive
Clc1ccc(C2[C@H]3CN(CC4CCCCC4)[C@H](c4ccccc4)C34CC2(c2cccnc2)C4)cn1 (stereo partly drawn)	Caspase-1 (Homo sapiens)	inactive
C[C@@H]1O[C@@H](OC[C@H]2O[C@@H](Oc3c(-c4cccc(O)c4O)oc4cc(O)cc(O)c4c3=O)[C@H](O)[C@@H](O)[C@@H]2O)[C@H](O)[C@H](O)[C@H]1O	Caspase-1 (Homo sapiens)	inactive
COC(=O)CC1C(C)(C)C(OC(C)=O)C2CC3=C4CC(=O)OC(c5ccoc5)[C@]4(C)CCC3[C@@]1(C)C2=O (stereo partly drawn)	Caspase-1 (Homo sapiens)	inactive

Assign activity change, negative = inhibition to the following record: `Cc1cc(NC(=O)COn2nnc3ccccc32)no1`
inactive

Assign activity change, negative = inhibition to the following record: `C[C@]12C=CC(=O)C=C1CC[C@@H]1[C@@H]2C(=O)C[C@@]2(C)[C@H]1CC[C@]2(O)C(=O)CO`
inactive

Assign activity change, negative = inhibition to the following record: `COC(=O)[C@@]1(Cc2ccccc2)[C@H]2c3cc(C(=O)N(C)C)n(CCSCCO)c3C[C@H]2CN1C(=O)c1ccccc1`
inactive

Assign activity change, negative = inhibition to the following record: COC1C[C@@H](O[C@@H]2C(C)C(=O)OC(C)C(C)C(O)C(C)C(=O)[C@@]3(CO3)CC(C)C(OC3OC(C)CC(N(C)C)C3O)C2C)OC(C)[C@@H]1O (stereo partly drawn)
inactive

Assign activity change, negative = inhibition to the following record: CC(C)c1ccc(OCC(O)Cn2cnc3ccccc32)cc1 (stereo not drawn)
inactive
